Source: patent US20200095296A1

Tested on: PBMC
Experiment: IFNg/IL-5 dual ELISPOT after 14 day in vitro stimulation of PBMC with Tau peptides
Assay type: cell-based, human
Details: across all cohorts
Description: It was investigated whether T cell responses against Tau were detectable in the PD and healthy control (HC) donors. To this end, a panel of overlapping peptides spanning through the entire sequence of the Tau protein was synthesized. Since it is known that the Tau protein is post-translationally modified (mainly by phosphorylation), in several instances phosphorylated peptides were also synthesized. In all, 55 non-modified 16-mers overlapping by 8 and 14 modified 16-mers were synthesized. […]
Where no end group is shown, it is not given here. [ ]: non-standard residue; d: D form. pT = C[C@@H](OP(=O)(O)O)[C@H](N)C(=O)O; pS = N[C@@H](COP(=O)(O)O)C(=O)O
The class of a record is decided solely by its measured Frequency of response; consult range 1 (below 9), range 2 (9 to below 20), range 3 (20 or more)

• VDLSKVTSKCGSLGNI (listed as Homo sapiens) [Tau 16-mer, start 313] = range 2
• LATLADEVSASLAKQG (listed as Homo sapiens) [Tau 16-mer, start 425] = range 1
• HVTQARMVSKSKDGTG (listed as Homo sapiens) = range 2
• VYKSPVVSGDTSPRHL (listed as Homo sapiens) [Tau 16-mer, start 393] = range 2
• PAPKXPPSSGEPPKSG (PAPK[pT]PPSSGEPPKSG) = range 3
• SLEDEAAGHVTQARMV (listed as Homo sapiens) [Tau 16-mer, start 113] = range 2
• GKVQIINKKLDLSNVQ (listed as Homo sapiens) [Tau 16-mer, start 273] = range 3
• PMPDLKNVKSKIGSTE (PMPDLKNVKSKIG[pS]TE; listed as Homo sapiens) [Tau 16-mer, start 249] = range 2
• KVAVVRTPPKSPSSAK (KVAVVR[pT]PPKSPSSAK; listed as Homo sapiens) = range 2
• SVQIVYKPVDLSKVTS (listed as Homo sapiens) = range 3
• KIGSLDNITHVPGGGN (listed as Homo sapiens) [Tau 16-mer, start 353] = range 1
• ATLADEVSASLAKQGL (listed as Homo sapiens) [Tau 16-mer, start 426] = range 2
• KTDHGAEIVYKSPVVS (listed as Homo sapiens) [Tau 16-mer, start 385] = range 3
• ADGKTKIATPRGAAPP (listed as Homo sapiens) [Tau 16-mer, start 145] = range 2
• IKHVPGGGSVQIVYKP (listed as Homo sapiens) [Tau 16-mer, start 297] = range 2
• DFKDRVQSKIGSLDNI (DFKDRVQSKIG[pS]LDNI; listed as Homo sapiens) [Tau 16-mer, start 345] = range 2
• TRIPAKTPPAPKTPPS (listed as Homo sapiens) [Tau 16-mer, start 169] = range 1
• KVAVVRXPPKSPSSAK = range 3
